Target: Grp94 (recombinant cGrp94) (Canis lupus familiaris (Dog) (Canis familiaris), UniProt P41148)
Sequence (P41148 22-804): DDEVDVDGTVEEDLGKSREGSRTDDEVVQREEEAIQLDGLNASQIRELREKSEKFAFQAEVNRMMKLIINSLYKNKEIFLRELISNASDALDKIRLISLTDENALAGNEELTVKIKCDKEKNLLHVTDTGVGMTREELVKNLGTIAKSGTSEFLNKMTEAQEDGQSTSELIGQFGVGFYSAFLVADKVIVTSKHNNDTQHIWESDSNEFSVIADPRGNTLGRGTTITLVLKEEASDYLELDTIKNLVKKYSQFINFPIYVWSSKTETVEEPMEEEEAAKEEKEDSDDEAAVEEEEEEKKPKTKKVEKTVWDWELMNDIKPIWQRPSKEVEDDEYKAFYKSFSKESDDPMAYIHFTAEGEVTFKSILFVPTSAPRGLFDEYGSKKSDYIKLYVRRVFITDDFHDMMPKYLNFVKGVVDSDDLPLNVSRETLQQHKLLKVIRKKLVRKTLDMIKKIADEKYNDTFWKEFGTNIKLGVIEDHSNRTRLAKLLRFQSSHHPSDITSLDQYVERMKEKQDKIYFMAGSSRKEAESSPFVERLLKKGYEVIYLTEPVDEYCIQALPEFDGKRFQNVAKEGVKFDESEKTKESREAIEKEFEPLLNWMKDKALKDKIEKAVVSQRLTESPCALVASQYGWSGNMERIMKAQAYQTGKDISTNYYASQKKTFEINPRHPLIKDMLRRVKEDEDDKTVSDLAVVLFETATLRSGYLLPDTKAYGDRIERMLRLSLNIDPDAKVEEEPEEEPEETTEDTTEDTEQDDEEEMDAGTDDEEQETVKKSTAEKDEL
Assay: Fluorescence polarization (FP) assay, cGrp94 with FITC-GDA
Type: binding
Settings: apparent Kd, cGrp94 and FITC-GDA, triplicates, ± SEM, read-out: Kd Grp94
measured_attribute: Kd (µM)

{"columns": ["structure_string", "readout_units", "endpoint_value"],
 "data": [
  ["NC(=O)c1ccc(-n2cccc2-c2ccc(Cl)cc2)cc1N[C@H]1CC[C@H](O)CC1", "µM", 10.6]
]}

(P) Cc1ccc(-c2cccn2-c2ccc(C(N)=O)c(N[C@H]3CC[C@H](O)CC3)c2)cc1
(Q) NC(=O)c1ccc(-n2cccc2Cc2ccccc2Br)cc1N[C@H]1CC[C@H](O)CC1
Prompt line: # min-compare on Kd between P and Q Indicate which entry you chose by stating its label.
Response line: P
(P: 8.35 µM, Q: 12.9 µM)

----------
Target: Grp94 (recombinant cGrp94) (Canis lupus familiaris (Dog) (Canis familiaris))
Test: Fluorescence polarization (FP) assay, cGrp94 with FITC-GDA
Format: binding
Details: apparent Kd, cGrp94 and FITC-GDA, triplicates, ± SEM, read-out: Kd Grp94
pKd: −log10 of the molar value.
Recorded pKd, one value per entry.

Here is how some molecules turned out for pKd.
{"columns": ["molecule", "experimental_system", "pKd"],
 "data": [
  ["NC(=O)c1ccc(-n2cccc2Cc2cccc(O)c2)cc1N[C@H]1CC[C@H](O)CC1 [Compound 8k]", "Grp94 (recombinant cGrp94) (Canis lupus familiaris (Dog) (Canis familiaris))", "< 4.60"],
  ["NC(=O)c1ccc(-n2cccc2Cc2c(F)cccc2F)cc1N[C@H]1CC[C@H](O)CC1 [Compound 8n]", "Grp94 (recombinant cGrp94) (Canis lupus familiaris (Dog) (Canis familiaris))", "< 4.60"]
]}

// switching to the query molecule
Prompt line: Answer with the recorded pKd of NC(=O)c1ccc(-n2cccc2Cc2ccccc2F)cc1N[C@H]1CC[C@H](O)CC1 [Compound 8e] only.
Response line: 6.14
